System: A498 renal
assayRemarks: NCI tumour cell line growth inhibition, 48 h
Assign TGI to each entry below.

[
  {
    "compound": "N/N=C1\\C(=O)N(c2ccc(Cl)cc2Cl)C(=O)C(=O)C1c1nc2ccccc2o1 (stereo not drawn)",
    "targetOrSystem": "A498 renal",
    "measuredValue": "> 100 µM"
  }
]

Okay, here is my list. What is TGI for each of these?
1. O=C(O)COc1cc(-c2ccccc2)nc2cc(F)ccc12
2. COc1ccc(C(=O)CC(c2ccccc2)[C@H]2C(c3ccc(OC)cc3)=Nc3c(nc(SC)n(C)c3=O)NC2c2ccccc2)cc1 (stereo partly drawn)

Response:
1. > 100 µM
2. > 100 µM

* * *

Could you please report measured GI50 for the items listed next?
Tested on: NCI-H226 lung
assayRemarks: NCI tumour cell line growth inhibition, 48 h

[
  {
    "molecule": "C1=C2CCCC3=Cc4ccccc4OC23Oc2ccccc21",
    "measuredValue": "> 100000 nM"
  },
  {
    "molecule": "Cc1ccc(S(=O)(=O)c2nc(-c3ccccc3)oc2S(C)=O)cc1 (configuration not stated)",
    "measuredValue": "1960 nM"
  },
  {
    "molecule": "CC(C)=CCC(OC(=O)C=C(C)C)C1=CC(=O)c2c(O)ccc(O)c2C1=O (configuration not stated)",
    "measuredValue": "1990 nM"
  },
  {
    "molecule": "COc1ccc(C(O)c2cc3c(N)c(C(=O)Nc4cccc(Cl)c4)sc3nc2C)cc1 (configuration not stated)",
    "measuredValue": "1630 nM"
  },
  {
    "molecule": "Cc1cc(O)c(C2=NN(c3ccc(S(N)(=O)=O)cc3)C(c3ccc(Cl)cc3)C2)c(C)c1Cl (configuration not stated)",
    "measuredValue": "10500 nM"
  },
  {
    "molecule": "Cc1nc(Nc2ccccn2)sc1C(=O)/C=C/c1ccc(Cl)cc1",
    "measuredValue": "1090 nM"
  }
]

Please look at the following molecule next.
Prompt: If you can, please state the reported GI50 value of `CN(C)c1nc2ccccc2c2c1c1c(n2Cc2ccccc2)-c2ccccc2C1=O` .
Response: > 100000 nM

* * *

Tested on: EKVX NSCLC
assayRemarks: NCI tumour cell line growth inhibition, 48 h
quantity: TGI

Field: example entries. Status: answers known.
[
  {
    "compound": "CC(C)OP(=O)(OC(C)C)/C(N)=N/Nc1ccc([N+](=O)[O-])cc1",
    "TGI": "> 100 µM"
  },
  {
    "compound": "C=CC[n+]1c2ccccc2n2cc([N+](=O)[O-])ccc21",
    "TGI": "> 100 µM"
  }
]

Would you mind giving TGI for every compound in the list below?
1. Cc1cccc(C)c1NC(=O)CCc1nc(=S)[nH][nH]1
2. CCCCCCCCCCCCCCCCCCNc1nc(=O)n(C2CC(O)C(COP(=O)(O)O)O2)cc1F (stereo unspecified)
3. c1cncc(CNCc2cccnc2)c1
4. CN(C)Cc1cc(C(=O)/C=C/c2ccccc2)cc(CN(C)C)c1O
5. C/C(=N\Nc1nc2cc(C(F)(F)F)ccc2s1)c1ccccn1
6. O=C(O)c1ccccc1N=Cc1ccc(N(CCCl)CCCl)cc1

Response:
> 100 µM
> 100 µM
> 100 µM
> 100 µM
5.55 µM
> 100 µM
